testedOn: Cathepsin G (Homo sapiens, UniProt P08311)
Sequence (P08311 whole entry): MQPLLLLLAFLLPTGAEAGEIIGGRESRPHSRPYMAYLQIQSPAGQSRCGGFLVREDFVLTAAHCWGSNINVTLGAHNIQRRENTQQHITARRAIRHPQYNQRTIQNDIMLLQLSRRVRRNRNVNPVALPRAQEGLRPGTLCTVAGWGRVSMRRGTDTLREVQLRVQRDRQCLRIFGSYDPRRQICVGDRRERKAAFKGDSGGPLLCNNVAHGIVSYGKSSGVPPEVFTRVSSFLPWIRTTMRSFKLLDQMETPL
Type: tissue-based
appliedConditions: neutrophil; further: in other assays of this panel Not Active means under 50% inhibition at 10 µM;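 further: inhibition of Cathepsin G enzyme activity, tested on an AMC-conjugated peptide substrate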

[
  {
    "compound": "COc1ccc2c3c1O[C@H]1C[C@@H](O)C=C[C@@]31CCN(C)C2",
    "IC50": "Not Active"
  },
  {
    "compound": "CN1[C@@H]2CC[C@H]1C[C@@H](OC(=O)C(CO)c1ccccc1)C2 (stereo partly drawn)",
    "IC50": "Not Active"
  },
  {
    "compound": "CO[C@H]1/C=C/O[C@@]2(C)Oc3c(C)c(O)c4c(O)c(c(/C=N/N5CCN(C6CCCC6)CC5)c(O)c4c3C2=O)NC(=O)/C(C)=C\\C=C\\[C@H](C)[C@H](O)[C@@H](C)[C@@H](O)[C@@H](C)[C@H](OC(C)=O)[C@@H]1C",
    "IC50": "Not Active"
  }
]
